test: Selectivity, ratio of Ki for sigma 1 to Ki for sigma 2
Readout: Ratio
Numbers only.

Worked examples follow.
Input line: Ratio for OC12C3C4CC5C6C4C1C6C(C53)N2CCc1cccc(F)c1 (centres undefined) ?
Output line: 0.25

Input line: Next compound: OC12C3C4CC5C6C4C1C6C(C53)N2Cc1cccc(F)c1 (centres undefined)
Output line: 4.94

Input line: Another compound to check: Fc1cccc(CCNC23OC4C5C6CC(C7C6C4C72)C53)c1 (centres undefined)
Output line: 0.41

Now let's try a different one.
Input line: May I ask what Ratio has been recorded for Fc1cccc(CNC23OC4C5C6CC(C7C6C4C72)C53)c1 (centres undefined) ?
Output line: 1.39
